Data origin: ChEMBL document CHEMBL1125252

# Tested on: MT4
# MEASUREMENT NOTES: Cytotoxic concentration required to reduce the viability of mock-infected MT-4 cells by 50%.
# Assay type: functional
# CONDITION SUMMARY: Homo sapiens
MEASURED ENDPOINT: CC50 (µM)
# number only, unit µM dropped from output

What does the record list as CC50 for CC1Cn2c(O)nc3cccc(c32)CN1Cc1ccco1 (configuration not stated) ?
529

What does the record list as CC50 for C=CC(=C)CN1Cc2cccc3nc(O)n(c23)CC1C (configuration not stated) ?
290

What does the record list as CC50 for C/C=C(/C)CN1Cc2cccc3nc(O)n(c23)CC1C (configuration not stated) ?
106

What does the record list as CC50 for `C[C@@H]1Cn2c(O)nc3cccc(c32)CN1` ?
901

What does the record list as CC50 for CC1Cn2c(O)nc3cccc(c32)CN1CC1CC1 (configuration not stated) ?
588

What does the record list as CC50 for `C[C@H]1Cn2c(O)nc3cccc(c32)CN1` ?
901

###

# System: Human immunodeficiency virus 1
# MEASUREMENT NOTES: Effective concentration required to achieve 50% protection of MT-4 cells against the cytopathic effect of HIV-1.
# Assay type: functional, organism-based
# CONDITION SUMMARY: Human immunodeficiency virus 1, MT4
For each entry below, report its pIC50 value.
The scale used: pIC50 is minus the common logarithm of the concentration in molar units.

Field: pIC50 (Human immunodeficiency virus 1). Entry: `C=CCN1Cc2cccc3[nH]c(=O)n(c23)C[C@@H]1C`
4.18

Field: pIC50 (Human immunodeficiency virus 1). Entry: CCCCN1Cc2cccc3nc(O)n(c23)CC1C (configuration not stated)
4.00

Field: pIC50 (Human immunodeficiency virus 1). Entry: C(=NC1CCCCC1)=NC1CCCCC1 [DICYCLOHEXYLCARBODIIMIDE]
6.86

Field: pIC50 (Human immunodeficiency virus 1). Entry: C=C(Br)CN1Cc2cccc3nc(O)n(c23)CC1C (configuration not stated)
4.21

Field: pIC50 (Human immunodeficiency virus 1). Entry: C=CCN1Cc2cccc3[nH]c(=O)n(c23)CC1C (configuration not stated)
4.15

Field: pIC50 (Human immunodeficiency virus 1). Entry: CC(C)=CCN1Cc2cccc3nc(O)n(c23)CC1C (configuration not stated)
4.90

Field: pIC50 (Human immunodeficiency virus 1). Entry: CC1Cn2c(O)nc3cccc(c32)CN1Cc1ccco1 (configuration not stated)
3.97

Field: pIC50 (Human immunodeficiency virus 1). Entry: CC1Cn2c(O)nc3cccc(c32)CN1C/C=C\c1ccccc1 (configuration not stated)
3.91

Field: pIC50 (Human immunodeficiency virus 1). Entry: C/C=C\CN1Cc2cccc3nc(O)n(c23)CC1C (configuration not stated)
4.46

Field: pIC50 (Human immunodeficiency virus 1). Entry: C=CCCN1Cc2cccc3nc(O)n(c23)CC1C (configuration not stated)
4.30

Field: pIC50 (Human immunodeficiency virus 1). Entry: `Cc1cn([C@H]2C[C@H](N=[N+]=[N-])[C@@H](CO)O2)c(=O)[nH]c1=O`
8.82

Field: pIC50 (Human immunodeficiency virus 1). Entry: C/C=C(/C)CN1Cc2cccc3nc(O)n(c23)CC1C (configuration not stated)
4.54

###

# Tested on: MT4
# MEASUREMENT NOTES: Cytotoxic concentration required to reduce the viability of mock-infected MT-4 cells by 50%.
# Assay type: functional
# CONDITION SUMMARY: Homo sapiens
For each entry below, report its CC50 value.
# number only, unit µM dropped from output

What does the record list as CC50 for C/C=C/CN1Cc2cccc3nc(O)n(c23)CC1C (stereo unspecified) ?
443

What does the record list as CC50 for CC(C)=CCC/C(C)=C\CN1Cc2cccc3nc(O)n(c23)CC1C (stereo unspecified) ?
44

What does the record list as CC50 for C=C(CN1Cc2cccc3nc(O)n(c23)CC1C)c1ccccc1 (stereo unspecified) ?
3

What does the record list as CC50 for C/C=C/C=C/CN1Cc2cccc3nc(O)n(c23)CC1C (stereo unspecified) ?
378

What does the record list as CC50 for C=C(CN1Cc2cccc3nc(O)n(c23)CC1C)C(C)C (stereo unspecified) ?
18

What does the record list as CC50 for `C=C(C)CN1Cc2cccc3[nH]c(=O)n(c23)C[C@@H]1C` ?
222

###

For each entry below, report its Selectivity index value.
# Test system: MT4
# MEASUREMENT NOTES: Selectivity index measured as the ratio of CC50/IC50 values.
# Assay type: functional
Answer as a number with no unit attached.

What does the record list as Selectivity index for `C=CCN1Cc2cccc3[nH]c(=O)n(c23)C[C@@H]1C` ?
10

What does the record list as Selectivity index for `CC(C)=CCN1Cc2cccc3nc(O)n(c23)C[C@H]1C` ?
20

What does the record list as Selectivity index for C=C(C)CN1Cc2cccc3[nH]c(=O)n(c23)CC1C (configuration not stated) ?
15

What does the record list as Selectivity index for CCCCN1Cc2cccc3nc(O)n(c23)CC1C (configuration not stated) ?
5

What does the record list as Selectivity index for Cc1cn([C@H]2C[C@H](N=[N+]=[N-])[C@@H](CO)O2)c(=O)[nH]c1=O [ZIDOVUDINE] ?
6200

What does the record list as Selectivity index for `C=C(C)CN1Cc2cccc3[nH]c(=O)n(c23)C[C@@H]1C` ?
11

What does the record list as Selectivity index for C=CCCN1Cc2cccc3nc(O)n(c23)CC1C (configuration not stated) ?
11

What does the record list as Selectivity index for C/C=C/CN1Cc2cccc3nc(O)n(c23)CC1C (configuration not stated) ?
8

What does the record list as Selectivity index for C/C=C\CN1Cc2cccc3nc(O)n(c23)CC1C (configuration not stated) ?
16

What does the record list as Selectivity index for C=CCN1Cc2cccc3[nH]c(=O)n(c23)CC1C (configuration not stated) ?
10

What does the record list as Selectivity index for C(=NC1CCCCC1)=NC1CCCCC1 [DICYCLOHEXYLCARBODIIMIDE] ?
1693

What does the record list as Selectivity index for C=C(CC)CN1Cc2cccc3nc(O)n(c23)CC1C (configuration not stated) ?
2

What does the record list as Selectivity index for C=C(Br)CN1Cc2cccc3nc(O)n(c23)CC1C (configuration not stated) ?
7

What does the record list as Selectivity index for CC1Cn2c(O)nc3cccc(c32)CN1C/C=C\c1ccccc1 (configuration not stated) ?
3

What does the record list as Selectivity index for O=c1[nH]cnc2c1ncn2[C@H]1CC[C@@H](CO)O1 [DIDANOSINE] ?
191

What does the record list as Selectivity index for CC1Cn2c(O)nc3cccc(c32)CN1Cc1ccco1 (configuration not stated) ?
5

What does the record list as Selectivity index for C=CC(=C)CN1Cc2cccc3nc(O)n(c23)CC1C (configuration not stated) ?
4

What does the record list as Selectivity index for C/C=C(/C)CN1Cc2cccc3nc(O)n(c23)CC1C (configuration not stated) ?
4

What does the record list as Selectivity index for `CC(C)=CCN1Cc2cccc3nc(O)n(c23)C[C@@H]1C` ?
105

What does the record list as Selectivity index for CC(C)=CCN1Cc2cccc3nc(O)n(c23)CC1C (configuration not stated) ?
33

What does the record list as Selectivity index for CC1Cn2c(O)nc3cccc(c32)CN1CC1CC1 (configuration not stated) ?
13

What does the record list as Selectivity index for CCCN1Cc2cccc3[nH]c(=O)n(c23)CC1C (configuration not stated) ?
8

###

# System: MT4
# MEASUREMENT NOTES: Cytotoxic concentration required to reduce the viability of mock-infected MT-4 cells by 50%.
# Type: functional
# CONDITION SUMMARY: Homo sapiens
MEASURED ENDPOINT: CC50 (µM)
# number only, unit µM dropped from output

Field: CC50 (MT4). Entry: CC(C)=CCN1Cc2cccc3nc(O)n(c23)CC1C (stereo not given)
416

Field: CC50 (MT4). Entry: CC(C)N1Cc2cccc3nc(O)n(c23)CC1C (stereo not given)
65

Field: CC50 (MT4). Entry: `C=CCN1Cc2cccc3[nH]c(=O)n(c23)C[C@@H]1C`
670

Field: CC50 (MT4). Entry: C#C/C=C/CN1Cc2cccc3nc(O)n(c23)CC1C (stereo not given)
370

Field: CC50 (MT4). Entry: CC1Cn2c(O)nc3cccc(c32)CN1Cc1ncc[nH]1 (stereo not given)
685

Field: CC50 (MT4). Entry: COC(=O)CN1Cc2cccc3nc(O)n(c23)CC1C (stereo not given)
925

Field: CC50 (MT4). Entry: C#C/C(C)=C/CN1Cc2cccc3nc(O)n(c23)CC1C (stereo not given)
18

Field: CC50 (MT4). Entry: C=CCCN1Cc2cccc3nc(O)n(c23)CC1C (stereo not given)
552

Field: CC50 (MT4). Entry: C=C(C)CN1Cc2cccc3[nH]c(=O)n(c23)CC1C (stereo not given)
665

Field: CC50 (MT4). Entry: CCCN1Cc2cccc3[nH]c(=O)n(c23)CC1C (stereo not given)
722

Field: CC50 (MT4). Entry: `O=c1[nH]cnc2c1ncn2[C@H]1CC[C@@H](CO)O1`
1050

Field: CC50 (MT4). Entry: COC(=O)/C=C/CN1Cc2cccc3nc(O)n(c23)CC1C (stereo not given)
252

Field: CC50 (MT4). Entry: `CC(C)=CCN1Cc2cccc3nc(O)n(c23)C[C@@H]1C`
427

Field: CC50 (MT4). Entry: C(=NC1CCCCC1)=NC1CCCCC1 [DICYCLOHEXYLCARBODIIMIDE]
232

Field: CC50 (MT4). Entry: C=C(Cc1ccccc1)CN1Cc2cccc3nc(O)n(c23)CC1C (stereo not given)
572

Field: CC50 (MT4). Entry: `CC(C)=CCN1Cc2cccc3nc(O)n(c23)C[C@H]1C`
450

Field: CC50 (MT4). Entry: CCCCN1Cc2cccc3nc(O)n(c23)CC1C (stereo not given)
501

Field: CC50 (MT4). Entry: C=C(Br)CN1Cc2cccc3nc(O)n(c23)CC1C (stereo not given)
416

Field: CC50 (MT4). Entry: C=CCN1Cc2cccc3[nH]c(=O)n(c23)CC1C (stereo not given)
670

Field: CC50 (MT4). Entry: `Cc1cn([C@H]2C[C@H](N=[N+]=[N-])[C@@H](CO)O2)c(=O)[nH]c1=O`
9.3

Field: CC50 (MT4). Entry: CC1Cn2c(O)nc3cccc(c32)CN1CCO (stereo not given)
776

Field: CC50 (MT4). Entry: CC(=O)N1Cc2cccc3nc(O)n(c23)CC1C (stereo not given)
175

Field: CC50 (MT4). Entry: CC1Cn2c(O)nc3cccc(c32)CN1Cc1ccc[nH]1 (stereo not given)
92

Field: CC50 (MT4). Entry: CC1Cn2c(O)nc3cccc(c32)CN1C/C=C\c1ccccc1 (stereo not given)
388
